growth inhibition listing for selected molecules.
Assay: NCI Yeast Anticancer Drug Screen. Data for the sgs1 mgt1 strain (AID 161);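 note: 0% = growth of cultures given vehicle only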
Conditions: S. cerevisiae sgs1 mgt1 strain, at 50.0 µM (retest, dose inferred, filed as 5.0), stronger effect = higher value
This is part of a sample that, as a whole, favours compounds with a hit. Of some 79,000 tested, about 15% had one in any assay.
Number in %, nothing else.

# count of solved cases: 3
MOLECULE	TEST VALUE
O=C1OC(C2=CC(=O)c3ccccc3C2=O)C(Cl)=C1Cl (stereo not given)	78
Cc1nc2ccccc2nc1NNc1ccccc1	32
OC1(c2ccccc2)CCCc2ccc(Cl)cc21 (stereo not given)	4

The reported value for COc1ccc(C2C3=C(COC3=O)OC(C)(C)Oc3cc4c(cc32)OCO4)cc1OC (stereo not given) in terms of growth inhibition is 50

growth inhibition in this record for O=C(Nc1ccc(Cl)cc1)Nc1nnc2nc(C(C(=O)c3cccc([N+](=O)[O-])c3Cl)c3nc4nnc(NC(=O)Nc5ccc(Cl)cc5)n4[nH]c3=O)c(=O)[nH]n12 : 28

CC(=O)OC1CC2C(C)(C)C(=O)C=C[C@]2(C)C2CCC3(C)C(=CCC3[C@H](CO)C[C@H](O)C(=O)C(C)(C)O)[C@]12C (stereo not given in full) yielded growth inhibition of 93

GET /value?item= COc1cc(C2c3cc4c(cc3OC(OC(C)=O)C2C)OCO4)cc(OC)c1OC (stereo not given) &field=growth inhibition returns 29

Sample COC(=O)CCC(NC(=S)N/N=C(\C)c1ccccn1)C(=O)OC (stereo not given) ; growth inhibition observed: 80

Entry CC[n+]1oc(C(=O)c2ccc(Cl)cc2)c(-c2ccccc2)c1-c1ccccc1.[Cl][Fe]([Cl])([Cl])[Cl] , growth inhibition reported as 79

The reported value for O=[n+]1c2ccccc2n([O-])c2cc(Br)ccc21 in terms of growth inhibition is 99

* * *

Assay: NCI Yeast Anticancer Drug Screen. Data for the cln2 rad14 strain (AID 165);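 note: 0% = growth equal to vehicle treated cultures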
Conditions: S. cerevisiae cln2 rad14 strain, at 50.0 µM (retest, dose inferred, filed as 5.0), stronger effect = higher value
The panel holds about 79,000 compounds, 15% with a hit somewhere; the sample as a whole holds those more often.
Short version: growth inhibition at least 80% is Satisfied, less is Not satisfied.

COMPOUND	GROUP
CCCCCCCCCCCC(O)S(=O)(=O)O (centres undefined)	Not satisfied
C/C(=N\Nc1ccc([N+](=O)[O-])cc1[N+](=O)[O-])c1sc(-n2nc(-c3ccccc3)cc2-c2ccccc2)nc1C	Not satisfied
Cc1csc(=S)n1OC(=O)NC1CCCCC1	Satisfied
CCC(C)NC1=NCC(C)S1 (centres undefined)	Not satisfied
N#CNC(N)=Nc1cc2ccccc2c2ccccc12	Satisfied
CCCCCCCCCCCC1N=C(N)NC(CCCO)=C1C(=O)OC (centres undefined)	Satisfied
CCOC(=O)CC1(C(=O)OCC)c2[nH]c3ccccc3c2CCN1Cc1ccccc1 (centres undefined)	Not satisfied
Cc1cccc(/C=N/NC(=S)N2CCCC2)n1	Satisfied
CCCCCCCCCCCCCCCCOP(=O)(O)OCC(N)C(=O)O (centres undefined)	Satisfied
NC1=NNC2(C(N)=N1)c1ccccc1-c1ccccc12	Not satisfied

Input line: Reported growth inhibition at or above 80%? CC(C)=NOC(=O)Nc1ccc(Cl)cc1
Output line: Satisfied

Input line: growth inhibition >= 80% for Oc1ccc(SCc2ccc(NCc3ccccc3)cc2)cc1 ?
Output line: Not satisfied

Input line: # bool: growth inhibition of O=C(O)CCCC1CCCc2c1ccc1ccccc21 (centres undefined) >= 80%
Output line: Satisfied

* * *

Assay: NCI Yeast Anticancer Drug Screen. Data for the rad50 strain (AID 155);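 note: 0% = growth of vehicle-only cultures of the same strain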
Settings: S. cerevisiae rad50 strain growth inhibition; at 3.7 µM; stronger effect = higher value
This is part of a sample that, as a whole, favours compounds with a hit. Of some 79,000 tested, about 15% had one in any assay.
Listed below: growth inhibition values for each entry.
State the answer as a number, implicitly in %.

Here are 5 compounds together with their reported answers.
COMPOUND	growth inhibition [%]
CCCCOC(=O)Nc1ccc(C)c(NC(=O)OCCCC)c1	-3
O=[N+]([O-])c1ccc(N/N=C/Cc2ccccc2)c([N+](=O)[O-])c1	-2
CNC(=O)OCc1c(COC(=O)NC)c(-c2ccc(Cl)cc2)n2c1CCC2	-42
O=C(NNc1ccccc1)c1ccc(Cl)c(Cl)c1	5
O=c1ccc2ccccc2c2ccccc12	7

Next compound, please.
GET /value?item= Cc1c(C(C)C)cc(OCCO)cc1C(C)C &field=growth inhibition returns 2

* * *

Assay: NCI Yeast Anticancer Drug Screen. Data for the mgt1 strain (AID 153)
Settings: S. cerevisiae mgt1 mutant growth inhibition; at 11.0 µM; stronger effect = higher value
The panel holds about 79,000 compounds, 15% with a hit somewhere; the sample as a whole holds those more often.
Known growth inhibition of a selection of molecules
Kindly provide the numeric value in % only, without the unit symbol.

Guide cases for growth inhibition, answers given:
MOLECULE	ASSAY METRIC	TEST VALUE
CCc1c[n+]([O-])c(C)cc1[N+](=O)[O-]	growth inhibition	-2
Cc1cc2cc3cc(C)c(N)cc3nc2cc1N	growth inhibition	-28
N#CC(C#N)=NNc1ccc(S(=O)(=O)O)cc1	growth inhibition	-3
CN(C)Cc1cc(N=Nc2ccc(Cl)cc2)ccc1OC(=O)c1ccccc1	growth inhibition	5
CC(=O)SC(C[N+](=O)[O-])c1ccccc1 (centres undefined)	growth inhibition	18

CCC(C)NC1=NCC(C)S1 (centres undefined) yielded growth inhibition of -13

Briefly, growth inhibition measured for COc1cc2ccnc(-c3c4ccccc4c(N)c4c(OC)c(OC)ccc34)c2cc1OC : 0

C[Si](C)(C)/C=C/CCNC(C#N)c1ccccc1 (centres undefined) has a reported growth inhibition of 38

* * *

Test: NCI Yeast Anticancer Drug Screen. Data for the rad50 strain (AID 155);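 note: 0% = growth of vehicle-only cultures of the same strain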
Settings: S. cerevisiae rad50 strain growth inhibition; at 50.0 µM (retest, dose inferred, filed as 5.0); stronger effect = higher value
Compounds without any hit were thinned out: in the full panel of roughly 79,000, 15% have a hit.
The threshold is inclusive: growth inhibition of exactly 60% counts as rule met; values below receive rule not met.

Use these answered entries as a reference point.
COMPOUND	GROUP
CC1CC(C)(C)CC(OCCN2CCCCC2)(c2ccccc2)C1 (stereo unspecified)	rule met
Cc1nc2ccccc2nc1NNc1ccccc1	rule not met
CCCCCCCCCCCCCCCCOP(=O)(O)OCC(N)C(=O)O (stereo unspecified)	rule met

Input line: hey, is growth inhibition for this one >= 60%? Cc1cc2c(cc1C)[n+]([O-])c(-c1nc3ccccc3s1)c(N)[n+]2[O-]
Output line: rule not met

Input line: Is growth inhibition for N#CC1=C(N)N(/N=C/c2ccccc2)C(c2ccccc2)C1(C#N)C#N (stereo unspecified) at or above 60%?
Output line: rule met

Input line: Textbook exercise: given the entry O=Cc1ccc2c(c1)C(=O)c1ccccc1C2=O , state whether its growth inhibition is greater than or equal to 60%.
Output line: rule not met

* * *

Assay: NCI Yeast Anticancer Drug Screen. Data for the mgt1 strain (AID 153)
Details: S. cerevisiae mgt1 mutant growth inhibition; at 100.0 µM; stronger effect = higher value
The panel holds about 79,000 compounds, 15% with a hit somewhere; the sample as a whole holds those more often.
ASSAY METRIC: growth inhibition (%)
# number only, unit % dropped from output

Past entries and their recorded results:
MOLECULE	ASSAY METRIC	UNITS OF MEASURE	TEST VALUE
CC(C)(C)N=C(NO)c1ccccc1	growth inhibition	%	57
COc1ccc(C(=O)C(CN(C)C)CN(C)C)cc1	growth inhibition	%	77
OC(CCNCc1ccccc1)c1ccc2ccccc2c1 (configuration not stated)	growth inhibition	%	96
O=C1C=C(c2ccccc2)OC1(c1ccccc1)N1CCOCC1 (configuration not stated)	growth inhibition	%	98
CCO/C(C)=C(/C#N)C(N)=S	growth inhibition	%	0
CC(C)(C)CC(C)(C)c1cc(O)c(O)c(CN2CCCCC2)c1	growth inhibition	%	67

Looking up CCCCCCCCCCCCNC(C)=O , I found its growth inhibition recorded as 14

* * *

Assay: NCI Yeast Anticancer Drug Screen. Data for the sgs1 strain (AID 173);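 note: 0% = growth of vehicle-only control cultures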
Settings: S. cerevisiae sgs1 mutant, at 33.0 µM
This is part of a sample that, as a whole, favours compounds with a hit. Of some 79,000 tested, about 15% had one in any assay. Activity calls are given as the source filed them. Rule as the data show it: active = growth inhibition above about 70%; inactive = the rest.
Result category, one only: t = active, f = inactive

MOLECULE	GROUP
O=C1/C(=C/c2ccccc2)CCCC1CN1CCCCC1 (centres undefined)	t
OCC(CO)C(c1cccc2ccccc12)c1cccc2ccccc12	t

Input line: Would you mind telling me which call this test gave CN(C)N=Nc1ccccc1C(=O)NC#N ?
Output line: t

Input line: Given c1ccc(CCN2CCc3ccccc3C2)cc1 , state the outcome it received in this test.
Output line: f

Input line: Short answer needed: outcome of this test for COc1cc(CSc2ccc(O)cc2)cc(O)c1O ?
Output line: f

Input line: I'd appreciate the recorded outcome for COC1CCC(O)C(/C=C/[N+](=O)[O-])C1 (centres undefined) from this test.
Output line: t

Input line: Assay result, entry O=C1Nc2ccc(Br)cc2C1=Nc1ccc2c(c1)OCO2 — outcome?
Output line: f

Input line: // outcome(item) with item = CCC(=O)c1cc(C(=O)C(=S)SC)cc(C(=O)C(=S)SC)c1
Output line: t

Input line: Any idea what this test logged for Cc1ccc(CC2(OCCN(C)C)CCC(C(C)(C)C)CC2)cc1 (centres undefined) ?
Output line: t
